- Test system: NCI-H226 lung
- Protocol description: NCI-60 one-dose screen, 48 h (100 = growth as untreated, 0 = no growth, -100 = all killed)
- Particulars: 10 µM unless noted
This is part of a sample that, as a whole, favours compounds with a hit. Of some 83,000 tested, about 20% had one in any assay. Calls of active or inactive are those of the source. Rule for the calls: active = growth percent below 10; inactive = the rest.
Assay metric: growth

• COc1cc(C2CC(c3cccc(Nc4ccncc4)c3)=NN2c2ccc(Cl)cc2)cc(OC)c1OC (stereo not given) = 84.3% (inactive)
• Cc1ccccc1C(c1ccccc1)c1ccccc1C = 22.1% (inactive)
• CC(=O)c1cccc(NS(=O)(=O)c2cccc(C(=O)Nc3ccc(Br)cc3)c2)c1 = 49.3% [25 µM] (inactive)
• C#Cc1cccc(NC(=O)Nc2cccc(N=C=S)c2)c1 = 101% [8.25 µM] (inactive)
• COc1cc(/C=C2\C(=O)N(Cc3ccc(Cl)cc3)c3ccccc32)cc(OC)c1OC = 46.7% (inactive)
• Nc1c(Cl)cc([N+](=O)[O-])cc1Br = 93.7% (inactive)
• CN1C(=O)N(C)C2NC(N/N=C/c3ccccc3)=NC21 (stereo not given) = 95% (inactive)
• S=c1[nH]cccc1-c1nnc2n1Nc1nc3ccc(Cl)cc3cc1CS2 = 94.9% (inactive)
• O=C1Nc2c(ccc(Cl)c2Cl)/C1=C/c1ccccn1 = 93.5% (inactive)
• COc1ccc(C(=O)c2cc3c(N)c(C(=O)Nc4ccc(Br)cc4)sc3nc2C)cc1 = 38.5% (inactive)
• COc1c(Cl)cc(Cl)c2ccc(C=C3C(=O)NC(=S)NC3=O)nc12 = 100% (inactive)
• CCCCCCCCCCCCCCCC(=O)OC[C@@]1(O)C[C@@]23CC[C@@H]4C(C)(C)CCC[C@@]4(C)[C@@H]2CC[C@H]1C3 = 98.3% (inactive)
• COc1ccc(NC(=O)c2sc3nc(C)c(C(=O)c4ccc(OC)cc4)cc3c2N)cc1 = 87.9% (inactive)
• COc1cc(C2CC(c3cccc(Nc4ccncc4)c3)=NN2c2cc(Cl)cc(Cl)c2)cc(OC)c1OC (stereo not given) = 87% (inactive)
• CCC(=O)c1ccc(O)c(OC)c1 = 72.4% (inactive)
• CCCN=C(N)c1ccc(NC(=O)c2ccc(C(=O)Nc3ccc(C(N)=NCCC)cc3)cc2)cc1 = 73.4% (inactive)
• COc1ccc(Nn2c(SCC(=O)Nc3nc(-c4ccc(Cl)cc4)cs3)nc(C)c2C)cc1 = 60.5% (inactive)
• CCN(CC)CCCC(Nc1c2ccc(Cl)cc2nc2ccc(OC)cc12)c1ccc(Cl)cc1 (stereo not given) = 37% (inactive)
• O=C(CN1CCOCC1)Nc1ccc2ncnc(Nc3ccc(OCc4cccc(F)c4)c(Cl)c3)c2c1 = 85.1% (inactive)
• c1ccc2c(-c3c4ccsc4cc4[nH]c5ccccc5c34)c[nH]c2c1 = 67.9% (inactive)
